Reference source: PubChem BioAssay (NCI)

system: CCRF-CEM leukemia; experiment: NCI tumour cell line growth inhibition, 48 h
endpointLabel: GI50

Some solved cases for reference:
Cc1c(-c2ccc(C3CCCCC3)cc2)nc2ccc(F)cc2c1C(=O)O: 85.8 nM
Cc1ccc2oc(=O)cc(/C(=C3/C=CC=N3)c3ccc[nH]3)c2c1: 290 nM
CC1=CC(C)=NN=C(N)N1S(=O)(=O)c1cc(C)c(Cl)cc1SCc1ccccc1: 9150 nM
Cc1c(O)c(N=Nc2nc3ccccc3s2)c2ccccc2c1O: > 50000 nM
CN(CCCCCl)P(=O)(OCCS(=O)(=O)CC(NC(=O)CCC(N)C(=O)O)C(=O)NC(C(=O)O)c1ccccc1)OCC1OC(n2ccc(N)nc2=O)C(O)C1O (stereo unspecified): 632 nM
N.N.N.N.N.NC(=O)[O-].[Co+3].[I-]: > 100000 nM
O=C1C(Cl)=C(Nc2ccc(Nc3ccccc3)c(NC3=C(Cl)C(=O)c4ccccc4C3=O)c2)C(=O)c2ccccc21: 3710 nM
C=C1C(=O)O[C@H]2[C@H]1CC/C(COC(=O)NCc1c[nH]c3ccccc13)=C\CC[C@@]1(C)O[C@@H]21: 1480 nM
CSc1c(C2=C(c3cn(C)c4ccccc34)C(=O)NC2=O)c2ccccc2n1C: 793 nM
O=C1/C(=C/c2ccccc2)CN(C(=O)C(Cl)Cl)C/C1=C\c1ccccc1: 152 nM

## Input Give recorded GI50 with CCRF-CEM leukemia for the following compound: COC(=O)c1ccc2c(c1)C(=O)c1c-2n(CCCCl)c(=O)c2cc([N+](=O)[O-])ccc12
## Output 52800 nM

## Input # iterate: COc1ccc(/C=C2\CN(C(=O)C(Cl)Cl)C/C(=C\c3ccc(OC)cc3)C2=O)cc1
## Output 528 nM

## Input Field entry: CC/C=C\C[C@H](F)C/C=C1/C(=O)C=C[C@@H]1C/C=C\CCCC(=O)OC
## Output 1380 nM

## Input Now the compound COc1ccc2c3c(Nc4cccc(/C(C)=N\O)c4)[nH]c4ccccc4c-3c(N=O)c2c1
## Output 13600 nM

## Input And for CCCCOC(=O)c1ccc(N)cc1 ?
## Output 48200 nM

## Input What about this compound? CCCCC(CCCCCC(CCCC)NCc1ccc2c(c1)OCO2)NCc1ccc2c(c1)OCO2 (stereo unspecified)
## Output 524 nM
